biological target: IL-17A/F (Homo sapiens, UniProt Q16552+Q96PD4); experiment: IL-17A/F HEK-Blue cell assay (SEAP reporter); conditions: HEK-Blue IL-17A reporter cells, IL17A/F 5 ng/mL, 20 hours, SEAP read at A630; read-out: HEK-Blue IL17AF (IC50 for IL-17A/F inhibition)
Sequence (Q16552 24-155): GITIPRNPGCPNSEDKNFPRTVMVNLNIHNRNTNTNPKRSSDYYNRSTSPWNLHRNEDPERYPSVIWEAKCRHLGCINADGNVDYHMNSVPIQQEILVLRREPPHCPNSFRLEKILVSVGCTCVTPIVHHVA
Sequence (Q96PD4 31-163): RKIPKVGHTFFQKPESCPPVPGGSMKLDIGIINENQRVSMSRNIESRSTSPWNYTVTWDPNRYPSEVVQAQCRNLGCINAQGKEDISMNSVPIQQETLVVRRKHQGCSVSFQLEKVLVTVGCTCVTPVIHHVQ
# maps each entry to its IC50

Query string: Give reported IC50 value for CC(C)n1nccc1C(=O)N[C@H](c1cn2nc(CC3C[C@@H](C(F)(F)F)CNC3=O)cnc2n1)C1CCC(F)(F)CC1 (stereo partly drawn) [Compound 6]
Result string: > 1000 nM

Query string: Give reported IC50 value for CCn1nccc1C(=O)N[C@H](c1cn2nc(CC3C[C@@H](C(F)(F)F)CNC3=O)c(N3CCOCC3)nc2n1)C1CCC(F)(F)CC1 (single isomer, unassigned) [Compound 17]
Result string: 100 to 1000 nM
